# Test system: anaesthetised dog
# Protocol Description: Anti-angina activity: haemodynamic effects in the anaesthetised dog
# Format: in vivo
# Setup Conditions: 5 mg.kg^-1 intravenously
Listed here: items and their measured PULSE RATE Duration.

Reference set (7 entries):
[[record]]
compound = "CC(C)COCC(CN(Cc1ccccc1)c1ccc(Cl)cc1)N1CCCC1 (centres unmarked)"
endpoint = "PULSE RATE Duration"
measured_value = "> 45 min"

[[record]]
compound = "CC(C)COCC(CN(Cc1ccccc1)c1ccc2c(c1)OCO2)N1CCCC1 (centres unmarked)"
endpoint = "PULSE RATE Duration"
measured_value = "> 45 min"

[[record]]
compound = "Cc1cccc(C)c1N(Cc1ccccc1)CC(COCC(C)C)N1CCCC1 (centres unmarked)"
endpoint = "PULSE RATE Duration"
measured_value = "35 min"

[[record]]
compound = "COc1ccc(N(Cc2ccccc2)CC(COCC(C)C)N2CCCC2)cc1 (centres unmarked)"
endpoint = "PULSE RATE Duration"
measured_value = "> 45 min"

[[record]]
compound = "CC(C)COCC(CN(Cc1ccccc1)c1cccc(C(F)(F)F)c1)N1CCCC1 (centres unmarked)"
endpoint = "PULSE RATE Duration"
measured_value = "> 45 min"

[[record]]
compound = "CC(C)COCC(CN(Cc1ccccc1)c1ccc(Cl)c(Cl)c1)N1CCCC1 (centres unmarked)"
endpoint = "PULSE RATE Duration"
measured_value = "> 45 min"

[[record]]
compound = "CC(C)COCC(CN(Cc1ccccc1)c1cc(Cl)cc(Cl)c1)N1CCCC1 (centres unmarked)"
endpoint = "PULSE RATE Duration"
measured_value = "45 min"


Proceeding to the next compound to report its PULSE RATE Duration.
Query :: For the compound CC(C)COCC(CN(Cc1ccccc1)c1cccc(Cl)c1)N1CCCC1 (centres unmarked) , report PULSE RATE Duration.
Result :: > 45 min
